Values compiled from ChEMBL document CHEMBL4229336.

Tested on: HeLa
Assay: Cytotoxicity against human HeLa cells assessed as induction of necrosis at antiproliferative IC50 after 24 hrs by LDH release assay relative to control
Format: cell-based
Hi, to clarify the labels: Y covers Activity from 3% upward, N covers anything below 3%.

The following molecules have reported results that may help.
>>> df
                                   molecule  test_system  cat
0  CC(C)(C)OC(=O)N1C[C@@H]2C[C@H]1CN2C(=S)SC(C[N+](=O)[O-])c1ccc(F)cc1 (stereo partly drawn)         HeLa    N
1  CC(C)(C)OC(=O)N1C[C@@H]2C[C@H]1CN2C(=S)SC(C[N+](=O)[O-])c1ccc(Cl)cc1 (stereo partly drawn)         HeLa    Y
2  COc1ccc(C(C[N+](=O)[O-])SC(=S)N2C[C@@H]3C[C@H]2CN3C(=O)OC(C)(C)C)cc1 (stereo partly drawn)         HeLa    N
3  CC(C)(C)OC(=O)N1CCN(C(=S)SC(C[N+](=O)[O-])c2ccccc2)CC1 (stereo not drawn)         HeLa    N
4  CC(C)(C)OC(=O)N1C[C@@H]2C[C@H]1CN2C(=S)SC(C[N+](=O)[O-])c1ccc(C(F)(F)F)cc1 (stereo partly drawn)         HeLa    Y

Now let's try a different one.
Q: Activity >= 3% for Cc1ccc(C(C[N+](=O)[O-])SC(=S)N2C[C@@H]3C[C@H]2CN3C(=O)OC(C)(C)C)cc1 (stereo partly drawn) ?
Result: N

---

Exercise: state measured IC50 for each of the compounds provided.
Test system: Ca-Ski
Test: Antiproliferative activity against human CaSki cells after 24 hrs by crystal violet staining-based assay
Format: functional, cell-based
Give bare numbers, in µM.

Some compounds with recorded IC50:
COMPOUND	IC50 [µM]
COc1ccc(C(C[N+](=O)[O-])SC(=S)N2C[C@@H]3C[C@H]2CN3C(=O)OC(C)(C)C)cc1 (some centres undefined)	6.17
CC(C)(C)OC(=O)N1C[C@@H]2C[C@H]1CN2C(=S)SC(C[N+](=O)[O-])c1ccc(Cl)cc1 (some centres undefined)	7.2
Cc1ccc(C(C[N+](=O)[O-])SC(=S)N2C[C@@H]3C[C@H]2CN3C(=O)OC(C)(C)C)cc1 (some centres undefined)	5.94

The following compounds each have a reported value; give each one's IC50.
1. CC(=O)O[C@H]1C(=O)[C@@]2(C)[C@H]([C@H](OC(=O)c3ccccc3)[C@]3(O)C[C@H](OC(=O)[C@H](O)[C@@H](NC(=O)c4ccccc4)c4ccccc4)C(C)=C1C3(C)C)[C@]1(OC(C)=O)CO[C@@H]1C[C@@H]2O
2. CC[C@@]1(O)C(=O)OCc2c1cc1n(c2=O)Cc2cc3ccccc3nc2-1
3. CC(C)(C)OC(=O)N1C[C@@H]2C[C@H]1CN2C(=S)SC(C[N+](=O)[O-])c1ccc(F)cc1 (some centres undefined)

Result:
1. 2.9
2. 1.8
3. 6.79

---

System: Ca-Ski
Assay: Antiproliferative activity against human CaSki cells after 24 hrs by crystal violet staining-based assay
Type: functional, cell-based
EXPERIMENTAL_READOUT: IC50 (µM)
One number for each entry, in µM.

In [3]: df
Out[3]:
                                   molecule  experimental_readout  result_number
0  CC(C)(C)OC(=O)N1C[C@@H]2C[C@H]1CN2C(=S)SC(C[N+](=O)[O-])c1ccc(C(F)(F)F)cc1 (stereo partly drawn)                  IC50            6.1
1  CC(C)(C)OC(=O)N1CCN(C(=S)SC(C[N+](=O)[O-])c2ccccc2)CC1 (stereo not drawn)                  IC50           29.4

Consider the record given below.
Recorded result, CC(C)(C)OC(=O)N1C[C@@H]2C[C@H]1CN2C(=S)SC(C[N+](=O)[O-])c1ccccc1 (stereo partly drawn) , IC50: 2.36
